- System: Mycobacterium tuberculosis
- Protocol Text: Antimicrobial activity against multidrug-resistant Mycobacterium tuberculosis by resazurin microtiter assay
- Type: functional
Items are presented alongside their recorded MIC.
Measurement Type: MIC

INSERT INTO results (molecule, target_desc, result) VALUES
  ('C[C@]1(COc2ccc(N3CCC(Oc4ccc(OC(F)(F)F)cc4)CC3)cc2)Cn2cc([N+](=O)[O-])nc2O1', 'Mycobacterium tuberculosis', '0.02 µg/mL'),
  ('CO[C@H]1/C=C/O[C@@]2(C)Oc3c(C)c(O)c4c(O)c(c(/C=N/N5CCN(C)CC5)c(O)c4c3C2=O)NC(=O)/C(C)=C\C=C\[C@H](C)[C@H](O)[C@@H](C)[C@@H](O)[C@@H](C)[C@H](OC(C)=O)[C@@H]1C', 'Mycobacterium tuberculosis', '128 µg/mL'),
  ('C[C@]1(COc2ccc(NC(=O)Nc3ccc(Cl)cc3)cc2)Cn2cc([N+](=O)[O-])nc2O1', 'Mycobacterium tuberculosis', '> 8 µg/mL');

###

- Test system: Mycobacterium tuberculosis
- Protocol Text: Antimicrobial activity against multidrug-resistant Mycobacterium tuberculosis by resazurin microtiter assay
- Type: functional
Measurement Type: MIC

INSERT INTO assay_data (molecule, result) VALUES
  ('C[C@]1(COc2ccc(S(=O)(=O)N3CCOCC3)cc2)Cn2cc([N+](=O)[O-])nc2O1', '2 mg/L'),
  ('CCOc1ccc(NC(=O)Nc2ccc(OC[C@@]3(C)Cn4cc([N+](=O)[O-])nc4O3)cc2)cc1', '> 8 mg/L'),
  ('C[C@]1(COc2ccc(S(=O)(=O)N3CCCCC3)cc2)Cn2cc([N+](=O)[O-])nc2O1', '> 8 mg/L'),
  ('COc1ccc(NC(=S)Nc2ccc(OC[C@@]3(C)Cn4cc([N+](=O)[O-])nc4O3)cc2)cc1', '> 8 mg/L');

###

- Tested on: Mycobacterium tuberculosis
- Protocol Text: Antimicrobial activity against rifamycin-resistant Mycobacterium tuberculosis by resazurin microtiter assay
- Type: functional
Measurement Type: MIC (µg/mL)

INSERT INTO results (molecule, units_text, result_number) VALUES
  ('CO[C@H]1/C=C/O[C@@]2(C)Oc3c(C)c(O)c4c(O)c(c(/C=N/N5CCN(C)CC5)c(O)c4c3C2=O)NC(=O)/C(C)=C\C=C\[C@H](C)[C@H](O)[C@@H](C)[C@@H](O)[C@@H](C)[C@H](OC(C)=O)[C@@H]1C', 'µg/mL', 256),
  ('C[C@]1(COc2ccc(N3CCC(Oc4ccc(OC(F)(F)F)cc4)CC3)cc2)Cn2cc([N+](=O)[O-])nc2O1', 'µg/mL', 0.005),
  ('CCOc1ccc(NC(=O)Nc2ccc(OC[C@@]3(C)Cn4cc([N+](=O)[O-])nc4O3)cc2)cc1', 'µg/mL', 1),
  ('C[C@]1(COc2ccc(-n3cc(COc4ccc(OC(F)(F)F)cc4)nn3)cc2)Cn2cc([N+](=O)[O-])nc2O1', 'µg/mL', 0.06),
  ('C[C@]1(COc2ccc(S(=O)(=O)N3CCOCC3)cc2)Cn2cc([N+](=O)[O-])nc2O1', 'µg/mL', 1);

###

- Tested on: Mycobacterium tuberculosis
- Protocol Text: Antimicrobial activity against rifamycin-resistant Mycobacterium tuberculosis by resazurin microtiter assay
- Format: functional
Items are presented alongside their recorded MIC.
Measurement Type: MIC (µg/mL)

INSERT INTO assay_data (molecule, measurement_type, result_number) VALUES
  ('C[C@]1(COc2ccc(N3CCN(S(=O)(=O)c4ccc(F)cc4)CC3)cc2)Cn2cc([N+](=O)[O-])nc2O1', 'MIC', 1),
  ('C[C@]1(COc2ccc(NC(=O)Nc3ccc(Cl)cc3)cc2)Cn2cc([N+](=O)[O-])nc2O1', 'MIC', 0.67),
  ('COc1ccc(NC(=S)Nc2ccc(OC[C@@]3(C)Cn4cc([N+](=O)[O-])nc4O3)cc2)cc1', 'MIC', 2),
  ('C[C@]1(COc2ccc(S(=O)(=O)N3CCCCC3)cc2)Cn2cc([N+](=O)[O-])nc2O1', 'MIC', 3.34);

###

- System: Mycobacterium tuberculosis
- Protocol Text: Antimicrobial activity against multidrug-resistant Mycobacterium tuberculosis by resazurin microtiter assay
- Assay type: functional
Measurement Type: MIC (µg/mL)

INSERT INTO results (compound, measurement_qualifier, result_number) VALUES
  ('C[C@]1(COc2ccc(N3CCN(S(=O)(=O)c4ccc(F)cc4)CC3)cc2)Cn2cc([N+](=O)[O-])nc2O1', '>', 8),
  ('C[C@]1(COc2ccc(-n3cc(COc4ccc(OC(F)(F)F)cc4)nn3)cc2)Cn2cc([N+](=O)[O-])nc2O1', '=', 0.12),
  ('COc1c(N2CCNC(C)C2)c(F)cc2c(=O)c(C(=O)O)cn(C3CC3)c12 (stereo not drawn) [GATIFLOXACIN]', '=', 0.5);
